Numbers sourced from patent US20210253725A1.

# measured-target: T1, CD27 expressed on the cell surface (HT1080_CD27 cells) (human, UniProt P26842 20-260)
# T1 construct: whole, on cells; also called K562_CD27
# T1 sequence (looked up): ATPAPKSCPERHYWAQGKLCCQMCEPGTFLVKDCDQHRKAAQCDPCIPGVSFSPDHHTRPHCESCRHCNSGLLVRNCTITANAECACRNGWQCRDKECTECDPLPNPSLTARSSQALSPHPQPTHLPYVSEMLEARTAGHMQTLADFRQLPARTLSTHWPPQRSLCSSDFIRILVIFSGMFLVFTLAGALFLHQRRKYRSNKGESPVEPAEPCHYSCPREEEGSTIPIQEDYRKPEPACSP
# assay-name: cellular binding assay, HT1080_CD27 cells; note: test concentration or dose not given here
value-kind: Cellular binding assay [RFU] (RFU)
Give the quantity in RFU, number only.

binder: P018.S.08.A.A03 (antibody, V domains shown, V regions on human Ig constant parts; also called AB27_136) VH: QSLEESGGRLVTPGTPLTLTCTASGFSLSSYGMIWVRQAPGKGLEWIGMIIDVTYTYYASWAKGRFTISKTSTTVDLKMTSLTTEDTATYFCARTPGYGIYAYGNLWGQGTLVTVSS VL: AQVLTQTPSPVSAAVGGTVTISCQSSQSVYGNNWLAWYQQKPGQPPKLLIYYASTLASGVPSRFKGSGSGTQFTLTISEVQSDDAATYYCQGYYSSAAYVFGGGTEVVVK
Cellular binding assay [RFU], RFU: 342

binder: P018.S.01.A.B03 (antibody, V domains shown, V regions on human Ig constant parts; also called AB27_4) VH: QSLEESGGRLVTPGTPLTLTCTVSGFSLSSNAMSWVRQAPGEGLEWIGTIYTHGSSYYATWAKGRFTISKTSSTTVDLKMTSLTTEDTATYFCAGWAGGLSLWGPGTLVTVSS VL: DVVMTQTPASVSEPVGGTVTIKCQASEDIDNALAWYQQKPGQAPKILIYSASTLPSGVPSRFKGSGSGTQFTLTISDLESADAATYYCQSAYGGTYGDGFGGGTEVVVK
Cellular binding assay [RFU], RFU: 387

// below: Cellular binding assay [RFU] requested for another binder
For P018.S.10.A.A06 (antibody, V domains shown, V regions on human Ig constant parts; also called AB27_165) VH: QSVEESGGRLVTPGTPLTLTCTVSGFSLSGYHMCWVRQAPGKGLQYIGIIGSNGNTYYASWAKSRSTITRNTNENTVTLKMTSLTTEDTATYFCARSSGWGARFNLWGQGTLVTVSS VL: AQVLTQTPSSVSAAVGGTVTINCQASQSIYNDNELSWYQQKPGQPPKLLIYKASTLASGVPLRFSGSGSGTQFTLTISDVQSDVAATYYCLGGGMTPSDTTFGGGTEVVVK , write its Cellular binding assay [RFU].
414
